assayedSystem: T1, soluble human GPNMB (recombinant extracellular domain) (human, UniProt Q14956 23-498)
T1 construct: also called huGPNMB; recombinant human GPNMB extracellular domain; not shown: C-terminal polyhistidine or Avi-His tag
T1 sequence: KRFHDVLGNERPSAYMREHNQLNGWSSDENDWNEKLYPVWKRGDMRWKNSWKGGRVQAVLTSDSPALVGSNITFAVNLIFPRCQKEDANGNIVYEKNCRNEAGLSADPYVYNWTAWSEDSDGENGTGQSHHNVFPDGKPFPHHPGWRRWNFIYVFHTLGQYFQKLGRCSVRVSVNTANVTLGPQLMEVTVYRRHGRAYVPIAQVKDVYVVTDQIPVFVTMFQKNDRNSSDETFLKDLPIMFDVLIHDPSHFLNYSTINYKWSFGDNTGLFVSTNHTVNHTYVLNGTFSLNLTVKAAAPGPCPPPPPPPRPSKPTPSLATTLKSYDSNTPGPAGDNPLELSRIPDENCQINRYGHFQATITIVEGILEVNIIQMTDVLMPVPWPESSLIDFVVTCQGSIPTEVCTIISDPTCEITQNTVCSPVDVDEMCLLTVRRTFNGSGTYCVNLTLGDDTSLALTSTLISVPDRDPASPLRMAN
testMethodNotes: SPR Biacore, IgG captured
readoutType: koff (s⁻¹)

{"binder": "anti-GPNMB antibody GPN-84 (antibody, V domains shown) VH: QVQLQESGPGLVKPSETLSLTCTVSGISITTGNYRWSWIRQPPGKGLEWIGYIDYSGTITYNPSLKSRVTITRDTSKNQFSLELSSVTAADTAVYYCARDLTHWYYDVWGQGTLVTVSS VL: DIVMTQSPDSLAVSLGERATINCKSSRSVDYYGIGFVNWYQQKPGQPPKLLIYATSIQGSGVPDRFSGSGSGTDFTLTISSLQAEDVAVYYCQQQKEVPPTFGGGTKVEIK", "unitAbbreviation": "s⁻¹", "dataValue": 0.0021}
{"binder": "anti-GPNMB antibody GPN-86 (antibody, V domains shown) VH: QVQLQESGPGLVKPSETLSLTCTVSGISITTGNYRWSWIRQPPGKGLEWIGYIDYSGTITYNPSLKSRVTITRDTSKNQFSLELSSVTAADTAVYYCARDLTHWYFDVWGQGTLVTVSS VL: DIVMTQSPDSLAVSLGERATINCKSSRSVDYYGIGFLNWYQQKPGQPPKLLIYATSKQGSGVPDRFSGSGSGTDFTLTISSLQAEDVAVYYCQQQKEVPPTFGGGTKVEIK", "unitAbbreviation": "s⁻¹", "dataValue": 0.0012}
{"binder": "anti-GPNMB antibody GPN-92 (antibody, V domains shown, humanized GPN-08) VH: QVQLVQSGAEVKKPGASVKVSCKASGYTFTSYWMHWVRQAPGQGLEWMGEINPSDGRTNYAQKFQGRVTMTVDKSTSTVYMELSSLRSEDTAVYYCARSGGNYAWFAYWGQGTLVTVSS VL: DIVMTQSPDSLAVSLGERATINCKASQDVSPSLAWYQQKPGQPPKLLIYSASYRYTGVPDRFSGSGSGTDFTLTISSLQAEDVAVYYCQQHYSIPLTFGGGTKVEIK", "unitAbbreviation": "s⁻¹", "dataValue": 0.005}
{"binder": "anti-GPNMB antibody GPN-83 (antibody, V domains shown) VH: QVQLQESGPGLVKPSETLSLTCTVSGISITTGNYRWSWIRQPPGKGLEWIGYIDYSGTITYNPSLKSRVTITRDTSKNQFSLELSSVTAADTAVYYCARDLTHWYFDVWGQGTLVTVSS VL: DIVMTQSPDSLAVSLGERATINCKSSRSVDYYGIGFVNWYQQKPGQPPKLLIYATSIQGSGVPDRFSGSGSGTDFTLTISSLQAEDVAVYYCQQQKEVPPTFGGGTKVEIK", "unitAbbreviation": "s⁻¹", "dataValue": 0.0016}
{"binder": "anti-GPNMB antibody GPN-95 (antibody, V domains shown, also called PGN-95) VH: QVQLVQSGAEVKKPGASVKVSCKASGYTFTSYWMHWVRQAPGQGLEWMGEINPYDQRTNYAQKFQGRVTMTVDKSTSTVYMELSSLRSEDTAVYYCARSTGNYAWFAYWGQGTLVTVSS VL: DIVMTQSPDSLAVSLGERATINCKTSQDVSPSLAWYQQKPGQPPKLLIYSARYRYTGVPDRFSGSGSGTDFTLTISSLQAEDVAVYYCQQHYSIPLQFGGGTKVEIK", "unitAbbreviation": "s⁻¹", "dataValue": 0.00053}
